Here we gather pIC50 data for Tyrosine-protein kinase JAK2 (Homo sapiens, UniProt O60674) reported by several publications.
pIC50: −log10 of the molar value.
Attribute Measured: pIC50

INSERT INTO results (compound, attribute_measured, obs_value) VALUES
  ('CCC(CC)n1cc(-c2nc(-c3cnn([C@H]4CCC[C@@H]4O)c3)cn3nccc23)cn1 (single isomer, unassigned)', 'pIC50', '7.00 to 8.00'),
  ('Cn1cc(S(=O)(=O)N2CCC(Nc3ncc(C(F)(F)F)c(-c4cnn(CC(F)(F)F)c4)n3)CC2)cn1', 'pIC50', '≤ 5.00'),
  ('CCn1c(C(=O)N(C2CC2)C2CC2)cc2c3c(ncn3C)c(Nc3nc(C)c(C(=O)N4CCC4)s3)nc21', 'pIC50', 9.13),
  ('CCC(=O)c1cnc(Nc2ccc([C@@H](C)N3CC[C@H](O)C3)cn2)cc1Nc1cccc(-c2ncn(C)n2)c1OC', 'pIC50', '≤ 6.30'),
  ('Cc1c(Cl)cccc1OC[C@H](O)CNc1cc[nH]c(=O)c1-c1nc2cc3c(cc2[nH]1)C(=O)N(C1CCN(CCCO)CC1)C3=O', 'pIC50', '5.30 to 6.30'),
  ('N#CCC1(n2cc(-c3ncnc4[nH]ccc34)cn2)CN(C2CCN(C(=O)c3ccc(-c4cccc5ccncc45)c(F)c3)CC2)C1', 'pIC50', '7.30 to 8.00');

---

Here we gather IC50 data for Tyrosine-protein kinase JAK2 (Homo sapiens) reported by several publications.
Attribute Measured: IC50

INSERT INTO measurements (molecule, obs_value) VALUES
  ('Cc1nn(CCC#N)cc1-c1nc(-c2cnn(C)c2)cc2nccn12', '100 to 1000 nM'),
  ('O=C1NCCCCOCc2cc(ccc2OCC2CCCOC2)Nc2nccc(n2)-c2ccc1cc2[N+](=O)[O-] (stereo not drawn)', '1000 to 10000 nM'),
  ('COCC(=O)N1CC[C@H](Oc2ccc(-c3ncnc(Nc4ccc(C5CCN(C)CC5)c(C)c4)n3)cc2C#N)[C@H](F)C1', '183 nM'),
  ('CC[C@H](Cn1ccc2cnc(Nc3cnn(C(CC(C)(C)O)C(=O)O)c3)nc21)C(C)C (stereo partly drawn)', '< 100 nM'),
  ('N#CCC1(n2cc(-c3ccnc(Nc4ccc(C(=O)N5CCOCC5)cc4)n3)cn2)CC(C#N)C1 (single isomer, unassigned)', '< 100 nM'),
  ('CN1CCC(N2C(=O)c3cc4nc(-c5c(NC[C@@H](O)COc6cccc(C(F)(F)F)c6)ccnc5O)[nH]c4cc3C2=O)CC1', '500 to 5000 nM'),
  ('N#CCC1(n2ccc(-c3ncnc4[nH]ccc34)c2)CN(C2CCN(C(=O)c3cc(F)ccc3C(F)(F)F)CC2)C1', '50 to 100 nM'),
  ('CCCS(=O)(=O)NC12CC(N(C)c3ncnc4[nH]ccc34)(C1)C2', '> 5000 nM'),
  ('CC(C)S(=O)(=O)N1CC(CC#N)(n2cc(-c3nc(-c4cnn(C)c4)cn4nccc34)c(N)n2)C1', '77 nM'),
  ('CC(C)Oc1ccc2cc1COCCCCNC(=O)c1ccc(c(N)c1)-c1ccnc(n1)N2', '101 to 1000 nM'),
  ('CC(C)(C)n1cc(Nc2ncnc(-c3ccc(O[C@H]4CCN(C(=O)CC#N)C[C@H]4F)c(C#N)c3)n2)cn1', '108 nM'),
  ('C[C@H](O)C(=O)N1CC[C@H](Oc2ccc(-c3ncnc(Nc4ccc5c(c4)NC(=O)C5(C)C)n3)cc2C#N)[C@H](F)C1', '888 nM'),
  ('COC1CCC(Oc2ccc(-c3ncnc(Nc4ccc(N5CCN(C6COC6)CC5)cc4)n3)cc2C#N)CC1 (stereo not drawn)', '402 nM'),
  ('CCOC(=O)Cn1cc(Nc2ncc3ccn(CC4CCCC(C)C4)c3n2)cn1 (stereo not drawn)', '< 100 nM'),
  ('CCC(=O)c1cnc(Nc2cccc(CN3CCCCC3)n2)cc1Nc1cccc(-c2ncn(C)n2)c1OC', '≥ 500 nM'),
  ('O=C1NCCCCOCc2cc(ccc2O)Nc2nccc(n2)-c2ccc1cc2[N+](=O)[O-]', '1000 to 10000 nM'),
  ('CCOC(=O)Cn1cc(Nc2ncc3ccn(CC4CCC(C)CC4)c3n2)cn1 (stereo not drawn)', '< 100 nM'),
  ('COc1cc(Nc2nccc(-c3ccc(F)c(C#N)c3)n2)cc(OC)c1OC', '< 500 nM'),
  ('COc1cc(C(=O)N2CCC(N3CC(CC#N)(n4cc(-c5ncnc6[nH]ccc56)cn4)C3)CC2)ccc1F', '≤ 10 nM'),
  ('CCN1CCC(CC#N)(n2cc(-c3nc(-c4cnn(C)c4)cc4nccn34)cn2)CC1', '> 1000 nM'),
  ('C[C@H]1C[C@@H](O)CN1c1ccc(-c2ncnc(Nc3ccc(N4CCN(C5COC5)CC4)cc3)n2)cc1C#N', '51 nM'),
  ('CCC(CC)Cn1ccc2cnc(Nc3cnn(C4CCOC4=O)c3)nc21 (stereo not drawn)', '< 100 nM'),
  ('N#CCC(C1CCCC1)n1cc(-c2ccnc(Nc3cccc(NC(=O)CN4CCNC(=O)C4)c3)n2)cn1 (racemic)', '< 100 nM'),
  ('N#CC[C@H]1CC[C@H](n2c(CO)nc3cnc4ccoc4c32)CO1', '100 to 1000 nM'),
  ('N#Cc1cc(-c2ncnc(Nc3ccc(N4CCN(C5COC5)CC4)cc3)n2)ccc1F', '> 1000 nM'),
  ('CC(C)(O)Cc1cn2cc(Nc3ncc(Cl)c(NC4CCN(c5ccc(C#N)cn5)CC4)n3)ccc2n1', '5 nM'),
  ('Cc1ccc(NC(=O)c2cc(C(F)(F)F)ccc2F)cc1-c1ccc2c(c1)[nH]c1ncncc12', '≤ 500 nM'),
  ('CC1CCOCc2cc(ccc2OC(C)C)Nc2nccc(n2)-c2ccc(cc2N)C(=O)NC1 (stereo not drawn)', '11 to 100 nM'),
  ('CNC(=O)c1ccnc(-c2cnc3[nH]ccc3c2N[C@H]2C[C@@H](NS(=O)(=O)c3cc(C#N)ccn3)C2)c1', '10 to 100 nM'),
  ('CC1CCNC(=O)c2ccc(c([N+](=O)[O-])c2)-c2ccnc(n2)Nc2ccc(OC3CCCOC3)c(c2)COC1 (stereo not drawn)', '1000 to 10000 nM');

---

Here we gather pIC50 data for Tyrosine-protein kinase JAK2 (Homo sapiens, UniProt O60674) reported by several publications.
pIC50: −log10 of the molar value.
Attribute Measured: pIC50

INSERT INTO assay_data (molecule, test_system, obs_value) VALUES
  ('CN(C)c1c(F)c(F)c(C(=O)N2CCC(N3CC(CC#N)(n4cc(-c5ncnc6[nH]ccc56)cn4)C3)CC2)c(F)c1F', 'Tyrosine-protein kinase JAK2 (Homo sapiens, UniProt O60674)', '≥ 8.00'),
  ('COc1ccc(F)cc1COc1ccc2cc1COCCCCNC(=O)c1ccc(c(N)c1)-c1ccnc(n1)N2', 'Tyrosine-protein kinase JAK2 (Homo sapiens, UniProt O60674)', '5.00 to 6.00'),
  ('CS(=O)(=O)c1ccc(Nc2ncnc(-c3ccc(OC4CCN(C(=O)CO)CC4)c(C#N)c3)n2)cc1', 'Tyrosine-protein kinase JAK2 (Homo sapiens, UniProt O60674)', '< 6.00'),
  ('CC(C)n1cc(-c2cc3nccn3c(-c3cnn(C(CC#N)C4CC4)c3)n2)cn1 (stereo not drawn)', 'Tyrosine-protein kinase JAK2 (Homo sapiens, UniProt O60674)', '7.00 to 8.00'),
  ('Cc1c(Cl)cccc1OC[C@H](O)CNc1cc[nH]c(=O)c1-c1nc2cc3c(cc2[nH]1)C(=O)N(CC(C)(C)CN(C)C)C3=O', 'Tyrosine-protein kinase JAK2 (Homo sapiens, UniProt O60674)', '5.30 to 6.30'),
  ('O=C1NCCCCOCc2cc(ccc2N2CCOCC2)Nc2nccc(n2)-c2ccc1cc2I', 'Tyrosine-protein kinase JAK2 (Homo sapiens, UniProt O60674)', '6.00 to 7.00'),
  ('CCC(CC)n1cc(-c2nc(-c3cnn(CCN[C@@H]4CCN(C)C4=O)c3)cn3nccc23)cn1', 'Tyrosine-protein kinase JAK2 (Homo sapiens, UniProt O60674)', '7.00 to 8.00'),
  ('Cn1cc(-c2cc3nccn3c(-c3cnn(C4(CCF)CCC4)c3)n2)cn1', 'Tyrosine-protein kinase JAK2 (Homo sapiens, UniProt O60674)', '6.00 to 7.00'),
  ('CC[C@H](C1CC1)n1cc(-c2nc(-c3cnn(C(CO)CO)c3)cn3nccc23)cn1', 'Tyrosine-protein kinase JAK2 (Homo sapiens, UniProt O60674)', '7.00 to 8.00'),
  ('N#CCC(C1CC1)n1cc(-c2ccnc(Nc3ccc(C(=O)N4CCC(C#N)CC4)cc3)n2)cn1 (racemic)', 'Tyrosine-protein kinase JAK2 (Homo sapiens, UniProt O60674)', '> 7.00'),
  ('CC1(C)CN(C(=O)CO)C[C@@H](F)[C@H]1Oc1ccc(-c2ncnc(Nc3ccc(N4CCN(C5COC5)CC4)cc3)n2)cc1C#N (single isomer, unassigned)', 'Tyrosine-protein kinase JAK2 (Homo sapiens, UniProt O60674)', 6.63),
  ('COC(=O)N1CC2(CC(N(C)c3ncnc4[nH]ccc34)C2)C1', 'Tyrosine-protein kinase JAK2 (Homo sapiens, UniProt O60674)', '5.00 to 6.00'),
  ('O=C(NCC1CC(F)(F)C1)c1noc2c1CN(c1ncnc3[nH]ccc13)CC2', 'Tyrosine-protein kinase JAK2 (Homo sapiens, UniProt O60674)', '6.30 to 7.00'),
  ('C[C@H]1CN(C2COC2)CCN1c1ccc(Nc2ncnc(-c3ccc(O[C@H]4CCN(C(=O)CCO)C[C@H]4F)c(C#N)c3)n2)cc1', 'Tyrosine-protein kinase JAK2 (Homo sapiens, UniProt O60674)', 6.43),
  ('C#Cc1ccc(C(=O)N2CC3(CC(N(C)c4ncnc5[nH]ccc45)C3)C2)c(Cl)c1', 'Tyrosine-protein kinase JAK2 (Homo sapiens, UniProt O60674)', '6.00 to 7.00');
